- measurementNotes: Kinetic assay of purified DAOCS with penicillin N as main substrate
- Format: biochemical
- conditionLabel: for penicillin N; 0.5 μg purified DAOCS, 30° C., 10 minutes
- Protocol: The cell extract (2 ml) of a candidate mutant was applied onto a HiTrap Q column (5 ml) pre-equilibrated with buffer B (50 mM Mops/pH 7.5, 1 mM DTT, 0.4 mM pefabloc SC, and 0.5 μg/ml leupeptin). […] The standard penicillin G assay was followed for kinetic assay, but 20 μg of purified DAOCS was used and the concentration of α-ketoglutarate was reduced to 1 mM. […] The filtrate was analyzed by HPLC using 25 mM potassium phosphate/pH 6.5 as a mobile phase. […]
metricName: kcat
Quick note: number first, unit second.

These solved cases illustrate the format of a correct answer.
{"columns": ["molecule", "metricName", "val"],
 "data": [
  ["YS11: mutated penicillin expandase (DAOCS) with substitution I305M (protein, UniProt P18548 1-311, looked up, variant I305M) Deacetoxycephalosporin C …: MDTTVPTFSLAELQQGLHQDEFRRCLRDKGLFYLTDCGLTDTELKSAKDLVIDFFEHGSEAEKRAVTSPVPTMRRGFTGLESESTAQITNTGSYSDYSMCYSMGTADNLFPSGDFERIWTQYFDRQYTASRAVAREVLRATGTEPDGGVEAFLDCEPLLRFRYFPQVPEHRSAEEQPLRMAPHYDLSMVTLIQQTPCANGFVSLQAEVGGAFTDLPYRPDAVLVFCGAIATLVTGGQVKAPRHHVAAPRRDQIAGSSRTSSVFFLRPNADFTFSVPLARECGFDVSLDGETATFQDWIGGNYVNMRRTSKA", "kcat", "0.310 ± 0.004 S^−1"],
  ["YS71: mutated penicillin expandase (DAOCS) with substitution A106T (protein, UniProt P18548 1-311, looked up, variant A106T) Deacetoxycephalosporin C …: MDTTVPTFSLAELQQGLHQDEFRRCLRDKGLFYLTDCGLTDTELKSAKDLVIDFFEHGSEAEKRAVTSPVPTMRRGFTGLESESTAQITNTGSYSDYSMCYSMGTTDNLFPSGDFERIWTQYFDRQYTASRAVAREVLRATGTEPDGGVEAFLDCEPLLRFRYFPQVPEHRSAEEQPLRMAPHYDLSMVTLIQQTPCANGFVSLQAEVGGAFTDLPYRPDAVLVFCGAIATLVTGGQVKAPRHHVAAPRRDQIAGSSRTSSVFFLRPNADFTFSVPLARECGFDVSLDGETATFQDWIGGNYVNIRRTSKA", "kcat", "0.277 ± 0.014 S^−1"],
  ["YS69: mutated penicillin expandase (DAOCS) with substitution M188I (protein, UniProt P18548 1-311, looked up, variant M188I) Deacetoxycephalosporin C …: MDTTVPTFSLAELQQGLHQDEFRRCLRDKGLFYLTDCGLTDTELKSAKDLVIDFFEHGSEAEKRAVTSPVPTMRRGFTGLESESTAQITNTGSYSDYSMCYSMGTADNLFPSGDFERIWTQYFDRQYTASRAVAREVLRATGTEPDGGVEAFLDCEPLLRFRYFPQVPEHRSAEEQPLRMAPHYDLSIVTLIQQTPCANGFVSLQAEVGGAFTDLPYRPDAVLVFCGAIATLVTGGQVKAPRHHVAAPRRDQIAGSSRTSSVFFLRPNADFTFSVPLARECGFDVSLDGETATFQDWIGGNYVNIRRTSKA", "kcat", "0.277 ± 0.004 S^−1"]
]}

Okay, next one:
The molecule identified as SC59: DNA-shuffled combined DAOCS mutant with C155Y, Y184H, V275I and C281Y (protein, UniProt P18548 1-311, looked up, variant C155Y Y184H V275I C281Y) Deacetoxycephalosporin C …: MDTTVPTFSLAELQQGLHQDEFRRCLRDKGLFYLTDCGLTDTELKSAKDLVIDFFEHGSEAEKRAVTSPVPTMRRGFTGLESESTAQITNTGSYSDYSMCYSMGTADNLFPSGDFERIWTQYFDRQYTASRAVAREVLRATGTEPDGGVEAFLDYEPLLRFRYFPQVPEHRSAEEQPLRMAPHHDLSMVTLIQQTPCANGFVSLQAEVGGAFTDLPYRPDAVLVFCGAIATLVTGGQVKAPRHHVAAPRRDQIAGSSRTSSVFFLRPNADFTFSIPLAREYGFDVSLDGETATFQDWIGGNYVNIRRTSKA registered its kcat at 0.048 ± 0.001 S^−1
